- ASSAY_SYSTEM: muscarinic receptor (rat brain)
- Construct: gene Chrm1; native receptors in particulate (40 000 g pellet) preparation of whole brain without cerebellum; subtype mixture not resolved
- TEST_NAME: [3H]NMS displacement, rat brain membranes, filtration
- Format: binding
- CONDITION_CONTEXT: [3H]NMS 0.3 nM (0.5 nM in data analysis), 30 mM Na+/HEPES pH 7.5, 25 °C, 60 min; competitive
For each of the compounds below, state its pIC50.
One number for each entry, as −log10 of the molar value.

The following compounds have reported results that may help.
COMPOUND | pIC50
C[N+]1(C)[C@@H]2C[C@@H](OC(=O)C(O)(c3cccs3)c3cccs3)C[C@H]1[C@@H]1O[C@@H]12 | 9.41
Cc1cncc(CN2CCC(=C3c4ccc(Cl)cc4CCc4cccnc43)CC2)c1 | 5.82
CC(C)C(=O)Oc1ccc(CO)cc1[C@H](CCN(C(C)C)C(C)C)c1ccccc1 | 7.92
OCc1cc([C@@H](O)CNCCCCCCOCCOCc2c(Cl)cccc2Cl)ccc1O | 5.21
CNCC[C@H](Oc1cccc2ccccc12)c1cccs1 | 4.71

Please supply pIC50 for each of the following items, keeping them in order.
1. CNCc1cc(-c2ccccc2F)n(S(=O)(=O)c2cccnc2)c1
2. OCc1cc(C(O)CNCCCCCCOCCCCc2ccccc2)ccc1O (stereo not drawn)
3. CCc1cc2c(cc1CC)CC(NC[C@H](O)c1ccc(O)c3[nH]c(=O)ccc13)C2
4. CC(C)N(CCC(C(N)=O)(c1ccccc1)c1ccccn1)C(C)C (stereo not drawn) [Disopyramide]
5. CCC(=O)O[C@]1(C(=O)SCF)[C@H](C)C[C@H]2[C@@H]3C[C@H](F)C4=CC(=O)C=C[C@]4(C)[C@@]3(F)[C@@H](O)C[C@@]21C [Fluticasone Propionate]

5.77
5.21
4.41
5.22
5.10

Hello, the source for this data is paper PMC11503540, in case you need it.
